biological target: T1, human IgG1 (human, UniProt P01857-1 1-330 = IgG part); test: ELISA, immunoglobulin coated at 4 µg/mL, anti-human IgG2 detection
T1 construct: bought preparation coated on the ELISA plate; not shown: bought immunoglobulin, light chain not described
T1 sequence (P01857 other isoform, or with tags, fused parts or gaps): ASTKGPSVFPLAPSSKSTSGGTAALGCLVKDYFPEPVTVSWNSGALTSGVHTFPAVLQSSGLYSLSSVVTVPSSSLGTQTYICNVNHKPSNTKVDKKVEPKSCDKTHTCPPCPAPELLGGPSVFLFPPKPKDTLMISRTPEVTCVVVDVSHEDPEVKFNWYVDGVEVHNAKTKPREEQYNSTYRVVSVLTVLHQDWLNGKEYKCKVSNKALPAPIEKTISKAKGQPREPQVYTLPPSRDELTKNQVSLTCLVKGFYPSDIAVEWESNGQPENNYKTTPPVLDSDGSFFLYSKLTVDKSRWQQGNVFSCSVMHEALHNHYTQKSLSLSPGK
observable: A290 nm (absorbance)
Please state the figure in absorbance; there is no need to write the unit.

Below, each entry is followed by its recorded A290 nm result.
>  <binder>
recombinant 5.396.1 (antibody, human IgG2, kappa, V domains shown, human IgG2 kappa, expressed in 293 Freestyle cells; also called 5.396.1 (recombinant)) VH: QVQLQQWGAGLLKPSETLSLTCAVYGGSFSGYYWSWIRQPPGKGLEWIGEIHHSGSTNYNPSLKSRVTISVDTSKNQFSLKLSSVTAADTAVYYCARDNWNDSFYYYYGMDVWGQGTTVTVSS VL: DIQMTQSPSSLSASVGDRVTITCRASQGISNHLAWFQQKPGKAPKSLIYAASSLQSGVPSKFSGSGSGTDFTLTISSLQPEDFATYYCQQYNRHPFTFGPGTKVDIKR

>  <A290 nm (absorbance)>
0.07

$$$$
>  <binder>
6.605.1 Hc-H3Q,M13K,D82E Lc-T25A,T53S (antibody, human IgG2, kappa, V domains shown, human IgG2 kappa; the entries already hold the substitutions; also called 6.605.1 (H3Q,M13K,D82E-T25A,T53S); 6.605.1 QKE/AS) VH: QVQLVQSGAEVKKPGASVKVSCKASGYTFTSYGISWVRQAPGQGLEWMGWISAYNGNTNYAQKLQGRITMTTDTSTSTAYMELRSLRSDDTAVYYCARDGDYYDPFDYWGQGTLVTVSS VL: DIQMTQSPSSLSASVGDRVTITCRASQSISNWLNWYQQKPGKAPKLLIYGASSLKSGVPSRFSGSESGTDFTLTISSLQPEDFATYYCQQSYSTPPTFGQGTKVEIKR

>  <A290 nm (absorbance)>
0.07

$$$$
>  <binder>
recombinant 6.605.1 (antibody, human IgG2, kappa, V domains shown, human IgG2 kappa; also called 6.605.1 (recombinant)) VH: QVHLVQSGAEVKMPGASVKVSCKASGYTFTSYGISWVRQAPGQGLEWMGWISAYNGNTNYAQKLQGRITMTTDTSTSTAYMDLRSLRSDDTAVYYCARDGDYYDPFDYWGQGTLVTVSS VL: DIQMTQSPSSLSASVGDRVTITCRTSQSISNWLNWYQQKPGKAPKLLIYGASTLKSGVPSRFSGSESGTDFTLTISSLQPEDFATYYCQQSYSTPPTFGQGTKVEIKR

>  <A290 nm (absorbance)>
0.07

$$$$

Now let's try a different one.
Bench note: what A290 nm did 5.396.1 Hc-S103N Lc-K61R (antibody, human IgG2, kappa, V domains shown, human IgG2 kappa; the entries already hold the substitutions S103N (Hc) and K61R (Lc); also called 5.396.1 (S103N/K61R); 5.396.1 N/R) VH: QVQLQQWGAGLLKPSETLSLTCAVYGGSFSGYYWSWIRQPPGKGLEWIGEIHHSGSTNYNPSLKSRVTISVDTSKNQFSLKLSSVTAADTAVYYCARDNWNDNFYYYYGMDVWGQGTTVTVSS VL: DIQMTQSPSSLSASVGDRVTITCRASQGISNHLAWFQQKPGKAPKSLIYAASSLQSGVPSRFSGSGSGTDFTLTISSLQPEDFATYYCQQYNRHPFTFGPGTKVDIKR show?
0.08
